Target Of Assay: JARID1B (Homo sapiens, UniProt Q9UGL1)
Construct: The FLAG tagged full length JARID1B enzyme was expressed in Sf21 insect cells using FLAG-JARID1B baculoviruses; FLAG (N); made in house; host or cells: Sf21 insect cells (baculovirus)
Sequence (Q9UGL1 whole entry): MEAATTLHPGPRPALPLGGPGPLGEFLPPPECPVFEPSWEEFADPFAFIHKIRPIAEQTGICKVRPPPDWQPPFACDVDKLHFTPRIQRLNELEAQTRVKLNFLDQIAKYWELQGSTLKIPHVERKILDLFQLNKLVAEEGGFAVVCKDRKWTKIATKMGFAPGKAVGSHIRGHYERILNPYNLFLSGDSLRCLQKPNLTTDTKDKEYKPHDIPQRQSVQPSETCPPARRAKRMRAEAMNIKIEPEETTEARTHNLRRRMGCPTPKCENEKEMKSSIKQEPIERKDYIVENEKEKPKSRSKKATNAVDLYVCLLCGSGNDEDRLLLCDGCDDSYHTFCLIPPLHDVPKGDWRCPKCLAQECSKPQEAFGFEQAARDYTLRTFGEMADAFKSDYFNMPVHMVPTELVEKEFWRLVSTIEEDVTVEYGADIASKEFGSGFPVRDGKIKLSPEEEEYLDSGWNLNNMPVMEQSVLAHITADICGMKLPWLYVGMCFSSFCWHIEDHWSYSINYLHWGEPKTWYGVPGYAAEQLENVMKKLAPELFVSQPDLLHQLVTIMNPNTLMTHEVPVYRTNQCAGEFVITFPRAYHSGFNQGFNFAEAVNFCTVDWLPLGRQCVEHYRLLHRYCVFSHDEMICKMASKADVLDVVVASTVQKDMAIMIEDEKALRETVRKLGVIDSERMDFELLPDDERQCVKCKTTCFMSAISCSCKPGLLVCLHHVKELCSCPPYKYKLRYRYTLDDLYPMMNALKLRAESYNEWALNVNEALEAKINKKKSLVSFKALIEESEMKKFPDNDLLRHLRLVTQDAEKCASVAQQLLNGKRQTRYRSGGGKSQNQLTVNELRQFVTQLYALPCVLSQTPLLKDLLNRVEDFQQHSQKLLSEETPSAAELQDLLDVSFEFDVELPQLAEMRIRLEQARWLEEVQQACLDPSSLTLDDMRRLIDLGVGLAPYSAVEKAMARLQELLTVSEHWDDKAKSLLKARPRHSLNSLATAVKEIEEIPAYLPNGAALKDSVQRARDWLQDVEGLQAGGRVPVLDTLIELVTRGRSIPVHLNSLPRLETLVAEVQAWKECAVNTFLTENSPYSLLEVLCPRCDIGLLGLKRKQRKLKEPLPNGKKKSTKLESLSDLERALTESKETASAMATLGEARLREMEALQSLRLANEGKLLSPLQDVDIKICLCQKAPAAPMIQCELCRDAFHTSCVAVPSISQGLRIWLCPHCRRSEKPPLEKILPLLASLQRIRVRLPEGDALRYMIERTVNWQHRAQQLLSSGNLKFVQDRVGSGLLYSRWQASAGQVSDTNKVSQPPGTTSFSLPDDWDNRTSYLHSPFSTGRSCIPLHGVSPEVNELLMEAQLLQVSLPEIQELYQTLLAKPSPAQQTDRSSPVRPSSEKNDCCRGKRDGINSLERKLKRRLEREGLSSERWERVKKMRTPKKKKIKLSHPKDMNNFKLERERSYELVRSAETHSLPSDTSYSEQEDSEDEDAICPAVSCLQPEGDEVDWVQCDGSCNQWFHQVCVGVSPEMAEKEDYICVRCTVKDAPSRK
Test Protocol: FLAG-JARID1B histone demethylase assay with AlphaScreen detection (HTS and dose response);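 also: FLAG-tagged JARID1B at 4 nM acting on a biotinylated H3K4me3 peptide, demethylation read by AlphaScreen luminescence, with hits checked against bio-H3K4me2 without enzyme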;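 also: compound tested at 20 µM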
Type: biochemical
Run Parameters: validation of HTS actives; effect of compound in JARID1B AlphaScreen assay
Where a name gives a salt, the structure may show the parent alone.
Field 'label' (enum: Condition met / Condition not met). Set to Condition met when Assay Signal (percent) is strictly under 50%; else Condition not met.

## Input Strictly below 50%: is that where Assay Signal (percent) of Fc1cccc(-c2nn3c(-c4ccccc4Cl)nnc3s2)c1 [YU153729] sits?
## Output Condition met

## Input Determine if CC(NC(=S)Nc1ccc2c(c1)OCO2)c1ccncc1 (centres unmarked) [YU150371] shows Assay Signal (percent) strictly lower than 50%.
## Output Condition met

## Input Dear colleague, could you confirm whether Assay Signal (percent) of Cc1noc2c1C(c1ccc(O)c(O)c1)C1=C(CC(C)(C)CC1=O)N2 (centres unmarked) [YU185530] falls below 50%? Thanks.
## Output Condition met

## Input Decide: Assay Signal (percent) of COc1cc(NC(C)CCCN)c2ncccc2c1 (centres unmarked) [YU033971, PRIMAQUINE DIPHOSPHATE, reference compound] strictly below 50%?
## Output Condition met

## Input Quick check: Assay Signal (percent) of N#CC(=Cc1ccc(O)c(O)c1)C(N)=S (single isomer, unassigned) [YU154834, TYRPHOSTIN 47, reference compound] under 50%?
## Output Condition met

## Input Criterion: Assay Signal (percent) strictly below 50%. Is it met by CCCCC(=O)Nc1ccc(N(C)CCc2c(C)nn(C)c2C)c(C(=O)O)c1 [YU208232] ?
## Output Condition met

## Input Quick check: Assay Signal (percent) of NCCc1ccc(O)c(O)c1 [YU033802, DOPAMINE HYDROCHLORIDE, reference compound] under 50%?
## Output Condition met

## Input Take the molecule O=C(O)c1cccc(NCc2ccncc2)c1 [YU145461] and say whether its Assay Signal (percent) is less than 50%.
## Output Condition not met

## Input Is the reported Assay Signal (percent) for Cc1ccccc1C(=O)NCc1nnc(S)n1C [YU147024] strictly below 50%?
## Output Condition met

## Input Field: below-cutoff. Rule: recorded Assay Signal (percent) strictly less than 50%. Subject: c1ccc(CCc2nn3c(-c4ccncc4)nnc3s2)cc1 [YU150981]
## Output Condition not met

## Input Take the molecule O=C(O)CCCSCC(=O)Nc1ccccc1 [YU146590] and say whether its Assay Signal (percent) is less than 50%.
## Output Condition met

## Input Lab log: compare recorded Assay Signal (percent) with 50%; is it strictly lower for C=CCn1c(S)nnc1CNC(=O)c1cccc(C)c1 [YU149014] ?
## Output Condition met

## Input Here's an entry: O=c1c(O)c(-c2ccc(O)c(O)c2)oc2c(O[C@@H]3O[C@H](CO)[C@@H](O)[C@H](O)[C@H]3O)c(O)cc(O)c12 [YU153353, GOSSYPIN, reference compound] . Is its Assay Signal (percent) below 50%?
## Output Condition not met

## Input API: query returns whether the molecule falls strictly under 50% in Assay Signal (percent). Query: C#CCOc1c(Cl)cc(C(=S)N2CCOCC2)cc1OC [YU153110]
## Output Condition met

## Input Confirm or reject: Assay Signal (percent) of COc1cc(C(=S)N2CC(C)OC(C)C2)cc(OC)c1O (centres unmarked) [YU151441] lies strictly below 50%
## Output Condition met

## Input Report whether reported Assay Signal (percent) is lower than 50% (strictly) for O=C(NC(=S)NCc1ccccc1)C1CCCC1 [YU147054]
## Output Condition met
